Source: PubChem BioAssay (NCI)

In this section, each of the compounds is paired with its reported growth.
System: CCRF-CEM leukemia
method-description: NCI-60 one-dose screen, 48 h (100 = growth as untreated, 0 = no growth, -100 = all killed)
conditions-used: 10 µM unless noted
The panel holds about 83,000 compounds, 20% with a hit somewhere; the sample as a whole holds those more often.
Report the figure in % without appending any unit label.

Would you please look over these solved cases?
{"compound": "CCCCCCC1(/C=N/NC(N)=O)NC(=O)NC1=O (centres undefined)", "endpoint-label": "growth", "endpoint-result": 102}
{"compound": "CCCCOc1nc2cc(Cl)ccc2cc1/C=C/c1cc(/C=C/c2cc3ccc(Cl)cc3nc2OCCCC)n(-c2ccccc2)n1", "endpoint-label": "growth", "endpoint-result": 98.9}

Lab note: `COc1ccc(OC)c(NC2=C(SCCc3ccccc3)C(=O)c3ccccc3C2=O)c1` gave growth of 122

Lab note: O=C1CSC(c2c(F)cccc2Cl)N1NC(=O)C(O)(c1ccccc1)c1ccccc1 (centres undefined) gave growth of 97

Lab note: `O=C1NC(=O)C(c2cnc3ccccn23)=C1c1cn2c3c(cc(F)cc13)CN(C(=O)N1CCCCC1)CC2` gave growth of 27.9

---

Test system: NCI-H460 lung
method-description: NCI-60 one-dose screen, 48 h
conditions-used: 10 µM unless noted
This is part of a sample that, as a whole, favours compounds with a hit. Of some 83,000 tested, about 20% had one in any assay. Active and inactive are the calls of the source. Rule for the calls: active = growth percent below 10; inactive = the rest.
Respond with a class label; see active, inactive

{"molecule": "CCN1CCN(c2nc(C)cc(N(CCCNc3ccnc4cc(Cl)ccc34)Cc3ccc4c(c3)OCO4)n2)CC1", "experimental-system": "NCI-H460 lung", "class-name": "active"}

q: I'd appreciate the recorded outcome for Cc1cc(O)c2c(c1)C1OC(=O)CCCCCN1C1=C2C(=O)c2cccc(OC3CC(O)C(O)C(C)O3)c2C1=O (centres undefined) from this test.
a: inactive

q: I'd appreciate the recorded outcome for `COc1ccc2c(CCC(c3ccccc3)c3ccccc3)c3[n+](cc2c1OC)CCc1cc2c(cc1-3)OCO2` from this test.
a: active

q: I'd appreciate the recorded outcome for COC[C@@H](C)n1c(C2CCOCC2)nc2c1C1C=C(OC)C(c3c(C)noc3C)=CC1N=C2 (some centres undefined) from this test.
a: inactive

---

Tested on: SW-620 colon
method-description: NCI-60 one-dose screen, 48 h (100 = growth as untreated, 0 = no growth, -100 = all killed)
conditions-used: 10 µM unless noted
The panel holds about 83,000 compounds, 20% with a hit somewhere; the sample as a whole holds those more often.
endpoint-label: growth (%)
Report the figure in % without appending any unit label.

{"molecule": "COc1cccc(Nc2ncnn3ccc(CN4CC[C@@H](N)[C@H](O)C4)c23)c1", "growth / %": 88.4}
{"molecule": "C[C@@H](NC(=O)c1ncnc(N)c1Cl)c1ncc(C(=O)Nc2cc(C(F)(F)F)c(Cl)cn2)s1", "growth / %": 56.9}
{"molecule": "COc1cc2c3c(c1)nc(C)n3CCC2", "growth / %": 107}
{"molecule": "N#Cc1c(-c2ccc(Cl)cc2)csc1NC(=O)Nc1cccc(C(F)(F)F)c1", "growth / %": 22.7}
{"molecule": "CN1CC[C@H](c2c(O)cc(O)c3c(=O)cc(-c4ccccc4Cl)oc23)[C@H](O)C1", "growth / %": 0.889}
{"molecule": "CN(C)C[C@@H]1CCn2cc(c3ccccc32)C2=C(C(=O)NC2=O)c2cn(c3ccccc23)CCO1", "growth / %": -57.6}
{"molecule": "COc1ccc(Nc2ncccc2NC(=O)c2cn(Cc3cccc(Oc4ccccc4)c3)nn2)cc1", "growth / %": 106}
{"molecule": "C=CC(=O)N1CCC[C@H](n2c(=O)n(-c3ccc(Oc4ccccc4)cc3)c3c(N)ncnc32)C1", "growth / %": 97.4}

Given the molecule `CCCCCCCC(=O)SCC/C=C/[C@@H]1CC(=O)NCc2cccc(n2)C2=N[C@@](C)(CS2)C(=O)N[C@@H](C(C)C)C(=O)N1` and test system SW-620 colon, the measured growth is 69.3

Given the molecule `COc1cc2c(Oc3ccc4[nH]c(C)cc4c3F)ncnc2cc1OCCCN1CCCC1` and test system SW-620 colon, the measured growth is 102

Given the molecule `CC(=O)Oc1ccccc1C(=O)N=C1[Se]CCN1C(=O)c1ccccc1OC(C)=O` and test system SW-620 colon, the measured growth is -26.7

Given the molecule COC(=O)[C@@H](OC)[C@@H]1Cc2cc3cc(OC4CC(OC5CC(O)C(O)C(C)O5)C(O)C(C)O4)c(C)c(O)c3c(O)c2C(=O)[C@H]1OC1CC(OC2CC(OC3CC(C)(O)C(O)C(C)O3)C(O)C(C)O2)C(O)C(C)O1 (stereo partly specified) and test system SW-620 colon, the measured growth is 8.04
